tested on: HS 578T breast; test: NCI-60 one-dose screen, 48 h (100 = growth as untreated, 0 = no growth, -100 = all killed); conditions: 10 µM
About 83,000 compounds went through this panel and 20% of them were active in at least one assay; those are over-represented in the sample as a whole.
Classify by growth. Ranges: low class: < 30%; middle class: ≥ 30% and < 60%; high class: ≥ 60%

Enquiry: Which of the defined bands does the recorded growth of COc1ccc(NC(=O)CSc2nnc(-c3ccc4nc(-c5ccc(Cl)cc5)[nH]c4c3)o2)cc1 sit within?
Return: middle class

Enquiry: Bin this entry: C=C(c1ccc(OC)c(N)c1)c1cc(C)nc2ccccc12
Return: middle class

Enquiry: State the band of CC(C)CCSc1nc(NC2CC2)c(C#N)c(-c2ccc(C(C)C)cc2)n1
Return: high class

Enquiry: Could you tell me which band O=c1oc2ccccc2cc1-c1csc(N=Nc2c(O)[nH]c3ccc(Br)cc23)n1 belongs to?
Return: middle class

Enquiry: Which category fits this record: CC(=C(c1ccc(OCCCN(C)C)cc1)c1ccc(OCCCN(C)C)cc1)c1ccccc1
Return: low class

Enquiry: Class for C/C(=N\N=C\c1ccc(N(C)C)cc1)c1ccc2c(c1)Nc1ccccc1S2 ?
Return: low class

Enquiry: Just checking, what class would you give Cc1ccc(F)cc1N/C=c1\s/c(=C(\C#N)C(=O)Nc2ccccc2)n(-c2ccccc2)c1=O here?
Return: middle class

Enquiry: Sort CCOc1ccc(Nc2nc3ccccc3nc2Nc2ccc(OCC)cc2)cc1 into one of the categories.
Return: high class

Enquiry: Which class is correct for the following compound? Nc1nc(-c2ccccc2)cs1
Return: middle class

Enquiry: Textbook exercise: identify the category of the compound given here, COc1cc(/C=C/C(=O)c2ccc(NC(=O)CN3C(=O)NC(C)(c4ccccc4)C3=O)cc2)cc(OC)c1OC (stereo not drawn) , according to its measured value.
Return: middle class

Enquiry: Assign a bin to COc1cc(/C=C/C(=O)c2ccc(C(F)(F)F)cc2)ccc1Oc1nc(Nc2ccc(F)cc2)nc(N(C)C)n1
Return: high class

Enquiry: Exercise: read the entry Cc1ccc(C(=O)Nc2ccc(-n3c(C)nc4c(cnn4-c4ccccc4)c3=O)cc2)cc1 and state which class it falls under.
Return: high class

Enquiry: Category lookup for the compound CC(=O)Nc1nc(-c2ccc(N3CCN(C)CC3)c(NS(=O)(=O)c3ccc(C(F)(F)F)cc3)c2)cs1
Return: middle class

Enquiry: Exercise: read the entry CNC(=O)c1cccc(N2CCc3c2ccc(NC(=O)Nc2ccc(N4CCN(C)CC4)c(C(F)(F)F)c2)c3F)c1 and state which class it falls under.
Return: low class

Enquiry: Sort COc1ccc([C@H]2C(C(=O)c3ccc(Cl)cc3)C3(N[C@@H]2c2ccccc2)C(=O)Nc2ccc(Br)cc23)cc1 (stereo partly drawn) into one of the categories.
Return: low class

Enquiry: Band assignment needed for N#Cc1c(-c2ccc(F)cc2)nc(SCc2ccc([N+](=O)[O-])cc2)nc1N1CCOCC1 please.
Return: low class

Enquiry: Please classify: CC[C@]12C=CCN3CC[C@@]4(c5cc(C#CCNc6ccc(C)c(Nc7nccc(-c8cccnc8)n7)c6)c(OC)cc5N(C)[C@H]4[C@@](O)(C(=O)OC)[C@@H]1OC(C)=O)C32 (stereo partly drawn)
Return: middle class
